Molecular target: Butyrophilin subfamily 3 member A1 (Homo sapiens, UniProt O00481, W421A)
Assay: Displacement of GDP-BODIPY from C-terminal 6His-tagged BTN3A1 W421A mutant (unknown origin) expressed in Escherichia coli BL21 (DE) measured after 60 mins by fluorescence polarization assay
parameter: pIC50
# pIC50 is unitless: minus log10 of the molar concentration; print number only

>  <test smiles>
C/C(=C\CCCCP(=O)([O-])[O-])CO.[Na+].[Na+]

>  <pIC50>
2.49

$$$$

// lookup pIC50 for C/C(=C\CCP(=O)(O)O)CO
2.50

###

Molecular target: Butyrophilin subfamily 3 member A1 (Homo sapiens, UniProt O00481, R442A)
Test: Displacement of GDP-BODIPY from C-terminal 6His-tagged BTN3A1 R442A mutant (unknown origin) expressed in Escherichia coli BL21 (DE) measured after 60 mins by fluorescence polarization assay
parameter: pIC50
Please treat pIC50 as minus the base-10 logarithm of the molar concentration.

Quick one: pIC50 for C/C(=C\CCCCP(=O)([O-])[O-])CO.[Na+].[Na+] ?
2.46

Return reported pIC50; argument: C/C(=C\CCP(=O)(O)O)CO
2.49

###

Biological target: Butyrophilin subfamily 3 member A1 (Homo sapiens, UniProt O00481)
Sequence (O00481 whole entry): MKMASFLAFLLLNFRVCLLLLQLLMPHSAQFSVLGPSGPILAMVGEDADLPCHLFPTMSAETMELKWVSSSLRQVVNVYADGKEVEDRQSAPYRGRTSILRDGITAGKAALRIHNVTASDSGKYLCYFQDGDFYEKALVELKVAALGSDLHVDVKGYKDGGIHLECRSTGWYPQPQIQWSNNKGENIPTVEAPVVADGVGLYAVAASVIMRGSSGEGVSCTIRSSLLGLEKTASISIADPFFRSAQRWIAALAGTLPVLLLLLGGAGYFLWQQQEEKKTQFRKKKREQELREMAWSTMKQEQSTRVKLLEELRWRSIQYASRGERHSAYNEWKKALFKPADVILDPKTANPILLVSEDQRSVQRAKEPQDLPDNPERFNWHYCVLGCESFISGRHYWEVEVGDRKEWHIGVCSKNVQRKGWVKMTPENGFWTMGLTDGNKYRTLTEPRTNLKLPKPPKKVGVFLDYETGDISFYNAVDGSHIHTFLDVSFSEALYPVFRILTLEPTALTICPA
Experiment: Displacement of GDP-BODIPY from C-terminal 6His-tagged BTN3A1 B30.2 domain (unknown origin) expressed in Escherichia coli BL21 (DE) measured after 60 mins by fluorescence polarization assay
parameter: IC50
Please give the number followed by its unit.

The cases that follow already have their IC50 on record.
>  <test smiles>
C/C(=C\CCP(=O)(O)O)CO

>  <study system>
Butyrophilin subfamily 3 member A1 (Homo sapiens, UniProt O00481)

>  <IC50>
2560 µM

$$$$
>  <test smiles>
C/C(=C\CCP(=O)(O)OP(=O)(O)O)CO

>  <study system>
Butyrophilin subfamily 3 member A1 (Homo sapiens, UniProt O00481)

>  <IC50>
7.87 µM

$$$$

Give its IC50 value. Item: C/C(=C\CCP(=O)(O)CP(=O)(O)O)CO
103 µM

###

Target: Butyrophilin subfamily 3 member A1 (Homo sapiens, UniProt O00481)
Assay: Displacement of GDP-BODIPY from C-terminal 6His-tagged BTN3A1 full […] domain (unknown origin) expressed in Escherichia coli BL21 (DE) measured after 60 mins by fluorescence polarization assay
parameter: IC50
Please don't drop the unit; write it after the number.

Return reported IC50; argument: C/C(=C\CCCCP(=O)([O-])[O-])CO.[Na+].[Na+]
1070 µM

Field request: IC50 | item: C/C(=C\CCP(=O)(O)OP(=O)(O)O)CO
7.87 µM

Can you look up the measured IC50 of C/C(=C\CCP(=O)(O)O)CO for me?
3850 µM

###

Molecular target: Butyrophilin subfamily 3 member A1 (Homo sapiens, UniProt O00481, R448A)
Sequence (O00481 30-513 R448A limits assumed): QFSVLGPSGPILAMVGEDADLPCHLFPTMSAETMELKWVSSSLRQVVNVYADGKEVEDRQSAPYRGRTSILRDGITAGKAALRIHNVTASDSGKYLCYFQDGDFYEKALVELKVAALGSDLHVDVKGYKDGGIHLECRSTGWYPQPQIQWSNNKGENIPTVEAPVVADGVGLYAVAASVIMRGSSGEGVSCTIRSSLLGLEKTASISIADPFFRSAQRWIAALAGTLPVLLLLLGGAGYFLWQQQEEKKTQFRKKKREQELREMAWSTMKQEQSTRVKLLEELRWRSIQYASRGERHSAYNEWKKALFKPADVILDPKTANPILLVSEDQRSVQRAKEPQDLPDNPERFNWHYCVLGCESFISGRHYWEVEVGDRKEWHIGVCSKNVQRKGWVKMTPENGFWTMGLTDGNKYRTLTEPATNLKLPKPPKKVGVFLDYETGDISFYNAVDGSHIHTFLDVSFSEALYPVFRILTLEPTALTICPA
Test: Displacement of GDP-BODIPY from C-terminal 6His-tagged BTN3A1 R448A mutant (unknown origin) expressed in Escherichia coli BL21 (DE) measured after 60 mins by fluorescence polarization assay
parameter: IC50 (mM)
Respond with the bare value in mM.

>  <test smiles>
C/C(=C\CCCCP(=O)([O-])[O-])CO.[Na+].[Na+]

>  <readout value>
4.62

$$$$

Next up:
GET /values?readout=IC50&system=Butyrophilin subfamily 3 member A1 (Homo sapiens, UniProt O00481, R448A)&item= C/C(=C\CCP(=O)(O)O)CO
3.93
